test.name: Plasma stability, dog plasma
Type: in vitro ADME
reported.conditions: dog plasma, 37° C., 120 min
readout: Residual rate (%) 120 min
Your answer is read as %, so omit the unit and give the number.

Here's what some known entries look like.
C=CC(=O)N1C[C@H](C)N(c2nc(=O)n(-c3c(SC)ccnc3C(C)C)c3nc(-c4c(O)cccc4F)c(Cl)cc23)C[C@H]1C (single isomer, unassigned)
86.16
CC[C@H](C)C(=O)O[C@H]1C[C@@H](C)C=C2C=C[C@H](C)[C@H](CC[C@@H]3C[C@@H](O)CC(=O)O3)[C@H]21 [Lovastatin, reference compound]
36.25
C=CC(=O)N1C[C@H](C)N(c2nc(=O)n(-c3c(SC)ccnc3C(C)C)c3nc(-c4c(N)ccc(Cl)c4F)c(Cl)cc23)C[C@H]1C (single isomer, unassigned)
92.49

molecule C=CC(=O)N1CCN(c2nc(=O)n(-c3c(C)ccnc3C(C)C)c3nc(-c4c(O)cccc4F)c(F)cc23)[C@@H](C)C1 [AMG 510, reference compound] , Residual rate (%) 120 min observed: 91.92

---

test.name: Plasma stability, rat plasma
Format: in vitro ADME
reported.conditions: rat plasma, 37° C., 60 min
readout: Residual rate (%) 60 min
Your answer is read as %, so omit the unit and give the number.

CC[C@H](C)C(=O)O[C@H]1C[C@@H](C)C=C2C=C[C@H](C)[C@H](CC[C@@H]3C[C@@H](O)CC(=O)O3)[C@H]21 [Lovastatin, reference compound]
0.36
C=CC(=O)N1C[C@H](C)N(c2nc(=O)n(-c3c(SC)ccnc3C(C)C)c3nc(-c4c(O)cccc4F)c(Cl)cc23)C[C@H]1C (single isomer, unassigned) [Embodiment 166-1]
99.08
C=CC(=O)N1C[C@H](C)N(c2nc(=O)n(-c3c(SC)ccnc3C(C)C)c3nc(-c4c(N)ccc(Cl)c4F)c(Cl)cc23)C[C@H]1C (single isomer, unassigned) [Embodiment 165-1]
93.97

compound C=CC(=O)N1CCN(c2nc(=O)n(-c3c(C)ccnc3C(C)C)c3nc(-c4c(O)cccc4F)c(F)cc23)[C@@H](C)C1 [AMG 510, reference compound] , Residual rate (%) 60 min observed: 77.54

---

assay.system: CYP2C19 (Homo sapiens)
Construct: from tissue; host or cells: human liver microsomes
Sequence (P33261 whole entry): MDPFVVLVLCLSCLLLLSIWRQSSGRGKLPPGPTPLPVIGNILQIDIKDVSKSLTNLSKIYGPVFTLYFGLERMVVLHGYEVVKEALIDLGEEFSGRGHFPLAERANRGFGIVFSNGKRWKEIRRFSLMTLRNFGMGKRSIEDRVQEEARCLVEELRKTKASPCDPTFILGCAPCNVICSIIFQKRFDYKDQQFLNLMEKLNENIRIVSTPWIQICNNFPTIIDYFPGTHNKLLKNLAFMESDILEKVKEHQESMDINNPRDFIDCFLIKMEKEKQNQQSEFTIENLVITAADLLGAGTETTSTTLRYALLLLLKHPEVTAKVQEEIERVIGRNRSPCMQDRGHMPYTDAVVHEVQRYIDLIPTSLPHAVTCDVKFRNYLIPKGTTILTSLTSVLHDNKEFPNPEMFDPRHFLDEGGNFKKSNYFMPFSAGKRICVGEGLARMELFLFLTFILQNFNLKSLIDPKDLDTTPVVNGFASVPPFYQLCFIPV
test.name: CYP enzyme single point inhibition, human liver microsomes, 2C19
Format: in vitro ADME
reported.conditions: single point method
Method: Using human liver microsomal incubation system, the inhibition of CYP450 enzyme subtypes by compounds was rapidly predicted by single point method. 2.5 mM NADPH: 100 mM phosphate buffer was added to 4.165 mg of NADPH (reduced nicotinamide adenine dinucleotide phosphate) to 2 mL. 0.25 mg/mL microsome: 4 mL of 100 mM phosphate buffer was added to 50 μL of 20 mg/mL microsome and mixed well. […]
readout: IC50 (nM)
Your answer is read as nM, so omit the unit and give the number.

molecule C=CC(=O)N1C[C@H](C)N(c2nc(=O)n(-c3c(SC)ccnc3C(C)C)c3nc(-c4c(N)ccc(Cl)c4F)c(Cl)cc23)C[C@H]1C (single isomer, unassigned) [Embodiment 165-1] , IC50 observed: 28.8

---

assay.system: CYP2D6 (Homo sapiens, UniProt P10635)
Construct: from tissue; host or cells: human liver microsomes
Sequence (P10635 whole entry): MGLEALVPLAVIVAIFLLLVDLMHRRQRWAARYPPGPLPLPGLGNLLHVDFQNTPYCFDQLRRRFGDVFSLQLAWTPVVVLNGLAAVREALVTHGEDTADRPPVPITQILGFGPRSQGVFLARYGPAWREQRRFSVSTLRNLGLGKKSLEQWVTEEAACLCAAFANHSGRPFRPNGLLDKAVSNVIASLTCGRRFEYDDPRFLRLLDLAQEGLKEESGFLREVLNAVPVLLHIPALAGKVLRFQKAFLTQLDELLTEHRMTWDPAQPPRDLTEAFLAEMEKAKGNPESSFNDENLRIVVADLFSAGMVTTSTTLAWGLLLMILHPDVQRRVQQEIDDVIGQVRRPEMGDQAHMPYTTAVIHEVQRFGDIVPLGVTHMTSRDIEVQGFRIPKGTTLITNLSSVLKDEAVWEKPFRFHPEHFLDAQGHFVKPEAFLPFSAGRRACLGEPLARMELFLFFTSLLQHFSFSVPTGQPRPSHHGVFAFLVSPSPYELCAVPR
test.name: CYP enzyme single point inhibition, human liver microsomes, 2D6
Format: in vitro ADME
reported.conditions: single point method
readout: IC50 (nM)
Your answer is read as nM, so omit the unit and give the number.

compound C=CC(=O)N1C[C@H](C)N(c2nc(=O)n(-c3c(SC)ccnc3C(C)C)c3nc(-c4c(N)ccc(Cl)c4F)c(Cl)cc23)C[C@H]1C (single isomer, unassigned) [Embodiment 165-1] , IC50 observed: 21.2

---

assay.system: human KRAS G12C protein (Homo sapiens, UniProt P01116, G12C)
Construct: purchased Beijing SinoBiological Co., Ltd. 12259-H07E2
test.name: Thermal shift: melting temperature of KRAS G12C protein
Format: binding
reported.conditions: KRAS G12C protein 5.37 μM with compound 10 μM, 1 hour incubation
Description: A solution containing […] (pH 7.5), 1 mM DTT, 5×SYPRO Orange and 150 mM NaCl was prepared as the experimental buffer, and a final concentration of 5.37 μM human KRAS G12C protein was added thereto. […]
Catalogue of compounds with associated Tm (° C.)
For clarity, give the value followed by its unit.

Here's what some known entries look like.
C=CC(=O)N1CCN(c2nc(=O)n(-c3c(SC)ccnc3C(C)C)c3nc(-c4c(N)ccc(Cl)c4F)c(Cl)cc23)[C@@H](C)C1
60.2 °C
C=CC(=O)N1CCN(c2nc(=O)n(-c3c(S(C)(=O)=O)ccnc3C(C)C)c3nc(-c4c(O)cccc4F)c(Cl)cc23)[C@@H](C)C1
60.9 °C
C=CC(=O)N1CCN(c2nc(=O)n(-c3c(C)ccnc3C(C)C)c3nc(-c4ccccc4SC)c(F)cc23)[C@@H](C)C1
59.4 °C

compound `C=CC(=O)N1CCN(c2nc(=O)n(-c3c(C)ccnc3C(C)C)c3nc(-c4c(F)cccc4C(=O)N(C)C)c(F)cc23)[C@@H](C)C1` , Tm (° C.) observed: 55.5 °C

compound `C=CC(=O)N1[C@H](C)CN(c2nc(=O)n(-c3c(SC)ccnc3C(C)C)c3nc(-c4c(O)cccc4F)c(F)cc23)C[C@@H]1C` , Tm (° C.) observed: 55.2 °C

compound `C=CC(=O)N1CCN(c2nc(=O)n(-c3c(C)ccnc3CC(C)C)c3nc(-c4c(F)cccc4SCC)c(F)cc23)[C@@H](C)C1` , Tm (° C.) observed: 59.0 °C

---

test.name: Plasma stability, rat plasma
Type: in vitro ADME
reported.conditions: rat plasma, 37° C., 120 min
readout: Residual rate (%) 120 min
For clarity, give the value followed by its unit.

C=CC(=O)N1C[C@H](C)N(c2nc(=O)n(-c3c(SC)ccnc3C(C)C)c3nc(-c4c(N)ccc(Cl)c4F)c(Cl)cc23)C[C@H]1C (single isomer, unassigned)
91.93%

molecule C=CC(=O)N1CCN(c2nc(=O)n(-c3c(C)ccnc3C(C)C)c3nc(-c4c(O)cccc4F)c(F)cc23)[C@@H](C)C1 [AMG 510, reference compound] , Residual rate (%) 120 min observed: 56.77%

molecule C=CC(=O)N1C[C@H](C)N(c2nc(=O)n(-c3c(SC)ccnc3C(C)C)c3nc(-c4c(O)cccc4F)c(Cl)cc23)C[C@H]1C (single isomer, unassigned) , Residual rate (%) 120 min observed: 96.46%

molecule CC[C@H](C)C(=O)O[C@H]1C[C@@H](C)C=C2C=C[C@H](C)[C@H](CC[C@@H]3C[C@@H](O)CC(=O)O3)[C@H]21 [Lovastatin, reference compound] , Residual rate (%) 120 min observed: 0.30%

---

test.name: Pharmacokinetics in MiaPaca 2 tumor-bearing mice (plasma, tumor)
Format: in vivo
reported.conditions: female, mouse, po, tumor, 6 mg/kg p.o., read-out: T1/2 (hr) Tumor (converted)
readout: half-life

compound C=CC(=O)N1C[C@H](C)N(c2nc(=O)n(-c3c(SC)ccnc3C(C)C)c3nc(-c4c(N)ccc(Cl)c4F)c(Cl)cc23)C[C@H]1C (single isomer, unassigned) [Embodiment 165-1] , half-life observed: 0.9 h

---

Catalogue of compounds with associated Tm (° C.)
assay.system: human KRAS G12C protein (Homo sapiens, UniProt P01116, G12C)
Construct: purchased Beijing SinoBiological Co., Ltd. 12259-H07E2
test.name: Thermal shift: melting temperature of KRAS G12C protein
Assay type: binding
reported.conditions: KRAS G12C protein 5.37 μM with compound 10 μM, 1 hour incubation
Your answer is read as °C, so omit the unit and give the number.

Here's what some known entries look like.
C=CC(=O)N1CCN(c2nc(=O)n(-c3c(C)ccnc3C(C)C)c3nc(-c4c(F)cccc4S(C)(=O)=O)c(F)cc23)[C@@H](C)C1
60.4
C=CC(=O)N1C[C@H](C)N(c2nc(=O)n(-c3c(SC)ccnc3C(C)C)c3nc(-c4c(O)cccc4F)c(F)cc23)C[C@H]1C
57.2

Shifting focus to the compound that follows.
compound `C=CC(=O)N1CCN(c2nc(=O)n(-c3c(C)ccnc3C(C)C)c3nc(-c4cccnc4SC)c(F)cc23)[C@@H](C)C1` , Tm (° C.) observed: 57.3

---

test.name: Plasma stability, dog plasma
Assay type: in vitro ADME
reported.conditions: dog plasma, 37° C., 30 min
readout: Residual rate (%) 30 min
Your answer is read as %, so omit the unit and give the number.

Here's what some known entries look like.
C=CC(=O)N1C[C@H](C)N(c2nc(=O)n(-c3c(SC)ccnc3C(C)C)c3nc(-c4c(O)cccc4F)c(Cl)cc23)C[C@H]1C (single isomer, unassigned)
98.79
C=CC(=O)N1C[C@H](C)N(c2nc(=O)n(-c3c(SC)ccnc3C(C)C)c3nc(-c4c(N)ccc(Cl)c4F)c(Cl)cc23)C[C@H]1C (single isomer, unassigned)
96.32
C=CC(=O)N1CCN(c2nc(=O)n(-c3c(C)ccnc3C(C)C)c3nc(-c4c(O)cccc4F)c(F)cc23)[C@@H](C)C1 [AMG 510, reference compound]
101.14

Shifting focus to the compound that follows.
compound CC[C@H](C)C(=O)O[C@H]1C[C@@H](C)C=C2C=C[C@H](C)[C@H](CC[C@@H]3C[C@@H](O)CC(=O)O3)[C@H]21 [Lovastatin, reference compound] , Residual rate (%) 30 min observed: 95.45
